testedTarget: 5-HT2A receptor (Homo sapiens, UniProt P28223)
Construct: host or cells: HEK293
Sequence (P28223 whole entry): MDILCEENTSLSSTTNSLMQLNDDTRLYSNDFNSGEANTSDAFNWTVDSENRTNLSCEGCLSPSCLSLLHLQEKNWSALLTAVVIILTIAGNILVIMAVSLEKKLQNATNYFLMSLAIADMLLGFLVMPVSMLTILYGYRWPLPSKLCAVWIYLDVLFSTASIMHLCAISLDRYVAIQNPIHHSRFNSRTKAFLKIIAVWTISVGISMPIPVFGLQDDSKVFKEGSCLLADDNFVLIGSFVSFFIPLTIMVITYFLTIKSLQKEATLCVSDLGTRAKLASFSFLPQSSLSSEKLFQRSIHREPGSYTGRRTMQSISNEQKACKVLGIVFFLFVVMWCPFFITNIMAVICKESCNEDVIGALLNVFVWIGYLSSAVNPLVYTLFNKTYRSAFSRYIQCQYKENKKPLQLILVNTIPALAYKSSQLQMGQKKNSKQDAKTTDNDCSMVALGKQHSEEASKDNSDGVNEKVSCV
assayRemarks: FLIPR Ca2+ flux functional assay, 5-HT2A
Assay type: cell-based
conditions: agonist activity, Ca2+ flux, HEK293 cells; read-out: 5-HT2A EC50
pEC50: −log10 of the molar value.
Label class 1 when pEC50 is at or above 7; otherwise label class 0.

Example entries begin here.
entrySmiles: CCCN(CCC)CCc1c[nH]c2c(C)ccc(O)c12
class: class 1
--
entrySmiles: CCN(C)CCc1c[nH]c2c(F)ccc(OC)c12
class: class 1
--
entrySmiles: CCN(CC)CCc1c[nH]c2ccc(F)c(F)c12
class: class 1

Then there is this compound:
Query block: Determine whether this compound has pEC50 no lower than 7: `CN(C)CCc1c[nH]c2cc3ccoc3cc12`
Result block: class 0

Measured values drawn from patent US20250101038A1 for this set.
